Tested on: Escherichia coli TOP10
Assay: shrunken log2 fold change of peptide-encoding DNA abundance (4.5 h post-induction vs induction); higher = less antimicrobial activity (less host growth inhibition)
Conditions: time post-induction: 4.5 h; library: site-saturation at positions 5, 18, 19, 20
The following sequences are listed with their measured shrunken log2 fold change values.

[
  {
    "entry sequence": "RRIRSRPPRLPRPRPRPDASPRP",
    "study target": "Escherichia coli TOP10",
    "shrunken log2 fold change": 0.495
  },
  {
    "entry sequence": "RRIRRRPPRLPRPRPRPMRNPRP",
    "study target": "Escherichia coli TOP10",
    "shrunken log2 fold change": 0.959
  },
  {
    "entry sequence": "RRIRPRPPRLPRPRPRPSRQPRP",
    "study target": "Escherichia coli TOP10",
    "shrunken log2 fold change": 0.357
  },
  {
    "entry sequence": "RRIRERPPRLPRPRPRPQFEPRP",
    "study target": "Escherichia coli TOP10",
    "shrunken log2 fold change": -0.0369
  },
  {
    "entry sequence": "RRIRCRPPRLPRPRPRPFIRPRP",
    "study target": "Escherichia coli TOP10",
    "shrunken log2 fold change": -0.249
  },
  {
    "entry sequence": "RRIRGRPPRLPRPRPRPSKLPRP",
    "study target": "Escherichia coli TOP10",
    "shrunken log2 fold change": 0.0492
  },
  {
    "entry sequence": "RRIRGRPPRLPRPRPRPHVIPRP",
    "study target": "Escherichia coli TOP10",
    "shrunken log2 fold change": -0.191
  },
  {
    "entry sequence": "RRIRSRPPRLPRPRPRPNLIPRP",
    "study target": "Escherichia coli TOP10",
    "shrunken log2 fold change": -0.74
  }
]

---

Test system: Escherichia coli TOP10;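 also: peptides expressed intracellularly from a pBAD plasmid library in pooled LB shake-flask culture, induced with 0.3% L-arabinose, DNA abundance read by NGS, three biological replicates, DESeq2 with apeglm shrinkage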
Assay: shrunken log2 fold change of peptide-encoding DNA abundance (4.5 h post-induction vs induction); higher = less antimicrobial activity (less host growth inhibition)
Conditions: time post-induction: 4.5 h; library: site-saturation at positions 5, 18, 19, 20

[
  {
    "entry sequence": "RRIRFRPPRLPRPRPRPWTNPRP",
    "shrunken log2 fold change": -0.289
  },
  {
    "entry sequence": "RRIRGRPPRLPRPRPRPNCIPRP",
    "shrunken log2 fold change": 0.247
  },
  {
    "entry sequence": "RRIRSRPPRLPRPRPRPGMNPRP",
    "shrunken log2 fold change": -0.249
  },
  {
    "entry sequence": "RRIRRRPPRLPRPRPRPTVKPRP",
    "shrunken log2 fold change": 0.106
  },
  {
    "entry sequence": "RRIRCRPPRLPRPRPRPLNDPRP",
    "shrunken log2 fold change": 0.0553
  },
  {
    "entry sequence": "RRIRVRPPRLPRPRPRPSQVPRP",
    "shrunken log2 fold change": -0.215
  },
  {
    "entry sequence": "RRIRARPPRLPRPRPRPYVLPRP",
    "shrunken log2 fold change": -0.347
  },
  {
    "entry sequence": "RRIRCRPPRLPRPRPRPKKHPRP",
    "shrunken log2 fold change": -0.217
  },
  {
    "entry sequence": "RRIRYRPPRLPRPRPRPTNVPRP",
    "shrunken log2 fold change": -0.868
  },
  {
    "entry sequence": "RRIRCRPPRLPRPRPRPQCQPRP",
    "shrunken log2 fold change": 0.0557
  },
  {
    "entry sequence": "RRIRPRPPRLPRPRPRPYHLPRP",
    "shrunken log2 fold change": -1.07
  },
  {
    "entry sequence": "RRIRSRPPRLPRPRPRPHYTPRP",
    "shrunken log2 fold change": -0.728
  },
  {
    "entry sequence": "RRIRPRPPRLPRPRPRPWLTPRP",
    "shrunken log2 fold change": -0.123
  },
  {
    "entry sequence": "RRIRQRPPRLPRPRPRPAQEPRP",
    "shrunken log2 fold change": 0.852
  },
  {
    "entry sequence": "RRIRDRPPRLPRPRPRPHPCPRP",
    "shrunken log2 fold change": 0.0731
  },
  {
    "entry sequence": "RRIRQRPPRLPRPRPRPFSFPRP",
    "shrunken log2 fold change": -0.272
  },
  {
    "entry sequence": "RRIRHRPPRLPRPRPRPYLGPRP",
    "shrunken log2 fold change": -0.403
  },
  {
    "entry sequence": "RRIRRRPPRLPRPRPRPNIYPRP",
    "shrunken log2 fold change": -0.252
  },
  {
    "entry sequence": "RRIRMRPPRLPRPRPRPRSTPRP",
    "shrunken log2 fold change": 0.888
  },
  {
    "entry sequence": "RRIRYRPPRLPRPRPRPDKLPRP",
    "shrunken log2 fold change": -0.0621
  },
  {
    "entry sequence": "RRIRCRPPRLPRPRPRPTTNPRP",
    "shrunken log2 fold change": 0.0115
  },
  {
    "entry sequence": "RRIRPRPPRLPRPRPRPESMPRP",
    "shrunken log2 fold change": 0.142
  },
  {
    "entry sequence": "RRIRKRPPRLPRPRPRPKIHPRP",
    "shrunken log2 fold change": -0.152
  },
  {
    "entry sequence": "RRIRQRPPRLPRPRPRPGFKPRP",
    "shrunken log2 fold change": -0.534
  },
  {
    "entry sequence": "RRIRQRPPRLPRPRPRPIKHPRP",
    "shrunken log2 fold change": -0.12
  },
  {
    "entry sequence": "RRIRFRPPRLPRPRPRPVARPRP",
    "shrunken log2 fold change": 0.0942
  },
  {
    "entry sequence": "RRIRIRPPRLPRPRPRPKLKPRP",
    "shrunken log2 fold change": -0.688
  },
  {
    "entry sequence": "RRIRKRPPRLPRPRPRPEIEPRP",
    "shrunken log2 fold change": 2.58
  },
  {
    "entry sequence": "RRIRWRPPRLPRPRPRPIPCPRP",
    "shrunken log2 fold change": -0.0198
  },
  {
    "entry sequence": "RRIRLRPPRLPRPRPRPWRAPRP",
    "shrunken log2 fold change": 0.392
  },
  {
    "entry sequence": "RRIRERPPRLPRPRPRPDEFPRP",
    "shrunken log2 fold change": 0.0332
  },
  {
    "entry sequence": "RRIRYRPPRLPRPRPRPNVGPRP",
    "shrunken log2 fold change": -0.00664
  },
  {
    "entry sequence": "RRIRHRPPRLPRPRPRPAFGPRP",
    "shrunken log2 fold change": 0.105
  },
  {
    "entry sequence": "RRIRPRPPRLPRPRPRPIMGPRP",
    "shrunken log2 fold change": -0.233
  },
  {
    "entry sequence": "RRIRDRPPRLPRPRPRPQFLPRP",
    "shrunken log2 fold change": -0.225
  },
  {
    "entry sequence": "RRIRDRPPRLPRPRPRPRINPRP",
    "shrunken log2 fold change": 0.0252
  },
  {
    "entry sequence": "RRIRSRPPRLPRPRPRPSYPPRP",
    "shrunken log2 fold change": -0.736
  },
  {
    "entry sequence": "RRIRHRPPRLPRPRPRPHHCPRP",
    "shrunken log2 fold change": -0.152
  },
  {
    "entry sequence": "RRIRPRPPRLPRPRPRPKPAPRP",
    "shrunken log2 fold change": 0.157
  },
  {
    "entry sequence": "RRIRPRPPRLPRPRPRPLHFPRP",
    "shrunken log2 fold change": -0.207
  },
  {
    "entry sequence": "RRIRLRPPRLPRPRPRPQHTPRP",
    "shrunken log2 fold change": -0.418
  },
  {
    "entry sequence": "RRIRNRPPRLPRPRPRPVHVPRP",
    "shrunken log2 fold change": 0.0303
  },
  {
    "entry sequence": "RRIRMRPPRLPRPRPRPYHYPRP",
    "shrunken log2 fold change": -0.638
  },
  {
    "entry sequence": "RRIRERPPRLPRPRPRPANYPRP",
    "shrunken log2 fold change": -0.0934
  },
  {
    "entry sequence": "RRIRGRPPRLPRPRPRPIVFPRP",
    "shrunken log2 fold change": 0.194
  },
  {
    "entry sequence": "RRIRERPPRLPRPRPRPPDNPRP",
    "shrunken log2 fold change": 0.197
  },
  {
    "entry sequence": "RRIRSRPPRLPRPRPRPQRVPRP",
    "shrunken log2 fold change": -0.00684
  },
  {
    "entry sequence": "RRIRVRPPRLPRPRPRPQGCPRP",
    "shrunken log2 fold change": -0.0651
  },
  {
    "entry sequence": "RRIRDRPPRLPRPRPRPNYHPRP",
    "shrunken log2 fold change": -0.359
  },
  {
    "entry sequence": "RRIRYRPPRLPRPRPRPVTIPRP",
    "shrunken log2 fold change": -0.0242
  },
  {
    "entry sequence": "RRIRFRPPRLPRPRPRPEVGPRP",
    "shrunken log2 fold change": 0.296
  },
  {
    "entry sequence": "RRIRNRPPRLPRPRPRPDIWPRP",
    "shrunken log2 fold change": -0.394
  },
  {
    "entry sequence": "RRIRIRPPRLPRPRPRPETIPRP",
    "shrunken log2 fold change": -0.115
  },
  {
    "entry sequence": "RRIRRRPPRLPRPRPRPVSAPRP",
    "shrunken log2 fold change": 0.588
  },
  {
    "entry sequence": "RRIRNRPPRLPRPRPRPFPLPRP",
    "shrunken log2 fold change": -0.0286
  },
  {
    "entry sequence": "RRIRCRPPRLPRPRPRPYIGPRP",
    "shrunken log2 fold change": -1.24
  },
  {
    "entry sequence": "RRIRDRPPRLPRPRPRPETDPRP",
    "shrunken log2 fold change": 0.0208
  },
  {
    "entry sequence": "RRIRERPPRLPRPRPRPDKPPRP",
    "shrunken log2 fold change": -0.051
  },
  {
    "entry sequence": "RRIRLRPPRLPRPRPRPRMEPRP",
    "shrunken log2 fold change": 0.123
  },
  {
    "entry sequence": "RRIRNRPPRLPRPRPRPFETPRP",
    "shrunken log2 fold change": 0.0215
  },
  {
    "entry sequence": "RRIRWRPPRLPRPRPRPVDAPRP",
    "shrunken log2 fold change": 0.434
  },
  {
    "entry sequence": "RRIRMRPPRLPRPRPRPIQHPRP",
    "shrunken log2 fold change": -0.124
  },
  {
    "entry sequence": "RRIRARPPRLPRPRPRPKWVPRP",
    "shrunken log2 fold change": 0.222
  }
]

Reference for the values: the supplement of paper PMC9112550
